System: Streptococcus pyogenes
Assay: Inhibition of Streptococcus pyogenes SrtA deltaN81 mutant expressed in Escherichia coli BL21(DE3) at 100 uM using Abz-LPETA-Dap(Dnp) as substrate preincubated for 10 mins followed by substrate addition measured every min for 2.5 hrs by fluorimetric assay relative to control
// values below are reported inhibition
quantity kind: inhibition (%)

compound structure: CCC(=O)c1cccs1
measured on: Streptococcus pyogenes
quantity kind: inhibition
experimental result: 0.1

compound structure: c1ccc2c3c([nH]c2c1)CNCC3
measured on: Streptococcus pyogenes
quantity kind: inhibition
experimental result: 10.1

compound structure: CC(=O)NCCc1c[nH]cn1
measured on: Streptococcus pyogenes
quantity kind: inhibition
experimental result: 3.8

compound structure: O=C(O)c1cc2cc(Cl)ccc2[nH]1
measured on: Streptococcus pyogenes
quantity kind: inhibition
experimental result: 9.1

compound structure: COc1ccc2[nH]cc(CCNC(C)=O)c2c1
measured on: Streptococcus pyogenes
quantity kind: inhibition
experimental result: 16

compound structure: Nc1ncncc1C=O
measured on: Streptococcus pyogenes
quantity kind: inhibition
experimental result: 20.7

compound structure: O=C(O)Cc1c[nH]c2ccccc12
measured on: Streptococcus pyogenes
quantity kind: inhibition
experimental result: 8.6

compound structure: CCOC(=O)c1cc2ccc(Cl)cc2[nH]1
measured on: Streptococcus pyogenes
quantity kind: inhibition
experimental result: 15

###

Test system: Streptococcus pyogenes
Test: Inhibition of Streptococcus pyogenes SrtA deltaN81 mutant expressed in Escherichia coli BL21(DE3) at 100 uM using Abz-LPETA-Dap(Dnp) as substrate preincubated for 10 mins followed by substrate addition measured every min for 2.5 hrs by fluorimetric assay relative to control
Label 1 when inhibition is at or above 30%; otherwise label -1.

compound structure: CCOC(=O)c1cc(-c2ccccc2)c2cccc(O)c2c1
class assignment: 1
--
compound structure: O=Cc1c[nH]c2ccc(Cl)cc12
class assignment: -1
--
compound structure: Nc1[nH]c2cc(Cl)ccc2c1C(=O)N1CCOCC1
class assignment: 1
--
compound structure: O=C(O)c1[nH]c2cc(Cl)ccc2c1C(=O)Cc1ccc(Cl)cc1
class assignment: -1
--
compound structure: N#CCC(=O)c1c[nH]c2cc(F)ccc12
class assignment: -1
--
compound structure: COC(=O)c1ccnc(C(=O)OC)c1
class assignment: -1
--
compound structure: COC(=O)c1cc2ccc(Cl)cc2[nH]1
class assignment: -1
--
compound structure: Nc1[nH]c2ccccc2c1C(=O)NCCc1ccc(Cl)cc1Cl
class assignment: 1
--
compound structure: O=C(O)CCC(=O)c1cccs1
class assignment: -1
--
compound structure: O=C(O)Cc1c[nH]cn1
class assignment: -1
--
compound structure: O=C(O)CCC(=O)c1ccc2ccccc2c1
class assignment: 1
--
compound structure: CCOC(=O)c1[nH]c2cc(Cl)ccc2c1C(=O)O
class assignment: -1
--
compound structure: O=Cc1c[nH]c2cc(Cl)ccc12
class assignment: -1

###

Test system: Streptococcus pyogenes
Assay: Inhibition of Streptococcus pyogenes SrtA deltaN81 mutant expressed in Escherichia coli BL21(DE3) at 100 uM using Abz-LPETA-Dap(Dnp) as substrate preincubated for 10 mins followed by substrate addition measured every min for 2.5 hrs by fluorimetric assay relative to control
Reported values of inhibition for individual entries
quantity kind: inhibition

compound structure: O=C1CCN2c3ccccc3Sc3ccc(Cl)c1c32
experimental result: 11.1%
--
compound structure: O=C(c1cccs1)N1CCN(c2ncccn2)CC1
experimental result: 10.2%
--
compound structure: COc1cc(NS(=O)(=O)c2ccc(N)cc2)ncn1
experimental result: 12%
--
compound structure: COc1cccc2c3c(ccc12)NC(=O)CC3
experimental result: 54.2%
--
compound structure: Nc1ncccn1
experimental result: 7.5%
--
compound structure: CCOC(=O)c1[nH]c2cc(Cl)ccc2c1/C=N/c1ccccc1
experimental result: 3.7%
--
compound structure: O=Cc1ccc[nH]1
experimental result: 3.2%
--
compound structure: Nc1[nH]c2cc(Cl)ccc2c1C(=O)NCCc1ccc(Cl)cc1
experimental result: 91.9%
--
compound structure: NNC(=O)c1ccnc(C(=O)NN)c1
experimental result: 3%
--
compound structure: CCOC(=O)c1[nH]c2cc(Cl)ccc2c1N
experimental result: 12.8%
--
compound structure: O=Cc1c[nH]c2ccccc12
experimental result: 1.5%
--
compound structure: COc1ccc2[nH]cc(CCN)c2c1
experimental result: -1.9%
--
compound structure: O=Cc1nc2ccc(Cl)cc2[nH]1
experimental result: 19.9%
--
compound structure: COc1ccc(CCNC(=O)c2cnn(-c3ccccc3)c2N)cc1OC
experimental result: 4.6%

Where do the numbers come from? From ChEMBL document CHEMBL4325849.
